target: Muscarinic acetylcholine receptor M1 (Homo sapiens); assay: Cholinergic receptor muscarinic 1 (CHRM1) small molecule agonists, cell-based qHTS assay (AID 1963589); conditions: CHRM1-CHO cells, agonist mode, calcium flux fluorescence; series mostly up to 76.8 µM; note: nearly all actives have a fitted effect of over 35% in size
Active and inactive are the calls of the source. Calls come from the whole dose curve.
reported metric: activation

NC(=O)N1C(=O)C(C(=O)c2cc(Cl)cs2)c2cc(F)c(Cl)cc21 (stereo unspecified) : inactive
C/C(=C(/OCCOc1ccc(Cl)cc1)c1ccc(Cl)cc1Cl)n1ccnc1 : inactive
Clc1ccc(Nc2nnc(Cc3ccncc3)c3ccccc23)cc1 : inactive
C=CCN1C[C@H](C(=O)N(CCCN(C)C)C(=O)NCC)C[C@@H]2c3cccc4[nH]cc(c34)C[C@H]21 : inactive
NCCc1cnc[nH]1 : inactive
CCCCCCCC#N : inactive

Item under review: CCCc1ccccc1O . Reported activation?
inactive

Okay, and CCc1ccc(C(c2ccc(CC)cc2)C(Cl)Cl)cc1 ?
inactive

And what about the compound CC1=NN(c2ccc(S(=O)(=O)O)cc2)C(=O)C1N=Nc1ccccc1 (stereo unspecified) ?
inactive

// query: CC/C=C\C/C=C\C/C=C\CCCCCCCC(=O)OCC
inactive

Thanks! And CN(C)C(=O)COC(=O)Cc1ccc(OC(=O)c2ccc(N=C(N)N)cc2)cc1 ?
inactive

Param item: CN1CCC(Nc2ncc3ncnc(Nc4ccc(F)c(Cl)c4)c3n2)CC1
inactive

How about O=C1c2ccccc2C(=O)c2cc(S(=O)(=O)O)ccc21 ?
inactive

###

molecular target: D(2) dopamine receptor (Homo sapiens) (UniProt P14416); assay: Dopamine D2 receptor (DRD2) small molecule antagonists, cell-based qHTS assay (AID 1963595); conditions: HEK293-DRD2 cAMP HTRF antagonist mode; series mostly up to 92.4 µM
Sequence (P14416 whole entry, looked up): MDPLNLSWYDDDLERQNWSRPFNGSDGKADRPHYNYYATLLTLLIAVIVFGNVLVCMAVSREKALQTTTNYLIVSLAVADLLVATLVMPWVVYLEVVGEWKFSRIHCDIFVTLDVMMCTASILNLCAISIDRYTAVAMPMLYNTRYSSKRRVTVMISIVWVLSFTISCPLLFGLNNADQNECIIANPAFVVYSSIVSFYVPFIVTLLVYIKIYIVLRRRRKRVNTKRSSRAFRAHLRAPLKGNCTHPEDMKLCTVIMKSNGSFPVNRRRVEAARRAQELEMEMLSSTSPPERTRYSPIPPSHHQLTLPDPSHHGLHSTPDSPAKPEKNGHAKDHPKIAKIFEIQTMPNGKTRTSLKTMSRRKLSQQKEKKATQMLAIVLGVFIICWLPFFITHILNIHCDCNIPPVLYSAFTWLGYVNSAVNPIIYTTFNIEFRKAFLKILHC
Records with an inconclusive call do not appear. Calls of active or inactive are those of the source. The call rests on the fitted dose curve; in most records, active means well fitted inhibition curve with a large enough effect in the signal ratio in the repeat runs, with a control signal flat; inconclusive means weak or mixed curves, or effect the other way; inactive means flat fitted curve, though single readings scatter; the % refers to the signal ratio.
Pick one and only one: active, inactive

Please review the entries below; each comes with its answer.
CC(C)C=O : inactive
CCCCCOc1ccccc1/C(=C\SC)n1ccnc1 : inactive
CC(=O)NCCCS(=O)(=O)O : inactive
CC(=O)OC(OC(C)=O)c1ccc([N+](=O)[O-])o1 : inactive
CCCCC(CC)COCCCN (stereo not drawn) : inactive
CCN(C(=O)N(CC)c1ccccc1)c1ccccc1 : inactive
CC(=O)CC(=O)c1ccccc1 : inactive
CN1CCCN(C(c2ccccc2)c2ccc(Cl)cc2)CC1 (stereo not drawn) : active
NCCCC(O)(P(=O)(O)O)P(=O)(O)O : inactive
CC(C)C(O)(c1ccc(OC(F)(F)F)cc1)c1cncnc1 (stereo not drawn) : inactive

What call does the record list for Brc1cc(-c2ccc(Br)c(Br)c2Br)cc(Br)c1Br ?
inactive

One more molecule: CCCCCCCCCC(C)C=O (stereo not drawn)
inactive

###

assay: Nuclear factor erythroid 2-related factor 2/antioxidant responsive element (Nrf2/ARE) small molecule agonists: qHTS cell viability counter screen in human keratinocytes (AID 1919968); conditions: KeratinoSens HaCaT ARE cells viability, CellTiter-Fluor, 24 h; series mostly up to 92.4 µM; note: nearly all actives have a fitted effect of over 55% in size
Records with an inconclusive call do not appear. The source made the active and inactive calls. The call rests on the fitted dose curve; in most records, active means well fitted cell-killing curve with a large enough effect in the repeat runs; inconclusive means weak or mixed curves, or effect the other way; inactive means flat fitted curve, though single readings scatter.
Log the outcome using a class from active, inactive

CC(C)(O)c1ccc(C(C)(C)O)cc1 : inactive

Hi team, can someone confirm the assay call for CC(=O)C(=O)CC(C)C ?
inactive

Follow-up item: Nc1c(I)cc(I)c(C(=O)N(CCC(=O)O)c2ccccc2)c1I
inactive

Try O=P(c1ccccc1)(c1ccccc1)c1ccccc1 next.
inactive

Please answer likewise for CCS(=O)(=O)c1ccc(OC)c(C(=O)OC)c1
inactive

# iterate: Cc1ccc(C)c([N+](=O)[O-])c1
inactive

What do you get for Cc1cccc(C)c1NC(=O)C(C)N (stereo not drawn) ?
inactive

Hey, just so you know, these numbers are from PubChem BioAssay (Tox21).
